tested on: HT-29; assay: NCI tumour cell line growth inhibition, 48 h
Active and inactive are the calls of the source. Rule as the data show it: active = GI50 up to about 1.1 µM and inactive = higher. Square brackets hold non-standard residues; d marks the D form. Peptide text beside a SMILES is read from it. * marks the point of attachment. ξ: configuration not given here. NMeN = CN[C@@H](CC(N)=O)C(=O)O; NMeV = CN[C@H](C(=O)O)C(C)C; ξNMeV = CNC(C(=O)O)C(C)C; Boc = CC(C)(C)OC(=O)*; ξNMeA = CNC(C)C(=O)O
As shown below, each of these compounds has a reported GI50 value.

Please review the following examples before continuing.
compound	reported metric	reported result
CCCCCCCCCCCc1noc2c1C(=O)C(O)CC2 (centres undefined)	GI50	18.8 µM (inactive)
CS(=O)(=O)NNS(=O)(=O)c1cccc([N+](=O)[O-])c1	GI50	> 100 µM (inactive)
CN(C)C(=O)OC1=CC2CCC(C1)N2C (centres undefined)	GI50	> 100 µM (inactive)
Cc1sc2nc(-c3cccc([N+](=O)[O-])c3)c(/C=N/N=C(N)N)n2c1C	GI50	1.62 µM (inactive)
CO/C(=N\N=C(/c1ccccc1)C(F)(F)F)c1ccncc1	GI50	42.8 µM (inactive)

Task: Consider the compound shown here: CCCCCC[C@H]1C(=O)O[C@H](C)[C@H](NC(=O)c2cccc(NC=O)c2OC)C(=O)O[C@@H](C)[C@@H]1OC(=O)C(C)CC.CCCCCC[C@H]1C(=O)O[C@H](C)[C@H](NC(=O)c2cccc(NC=O)c2OC)C(=O)O[C@@H](C)[C@@H]1OC(=O)CC(C)C (some centres undefined) What is its recorded GI50?
Output: 8.59 µM (inactive)

Task: Need GI50 of CCC1(c2ccccc2)Sc2ccccc2-n2cccc2C1=O (centres undefined) , thanks.
Output: 9.62 µM (inactive)

Task: What does the data say about its GI50? Entry: CCOC(O)(NC(=O)C(C(F)(F)F)C(F)(F)F)C(F)(F)F (centres undefined)
Output: > 100 µM (inactive)

Task: Reported GI50 for `CCOP(=O)(OCC)/C(C#N)=C/c1ccccn1` : what is it?
Output: > 100 µM (inactive)

Task: Recorded GI50 for `CC(=O)c1ccc2c(c1)c1c(C)c3c[n+](C)ccc3c(C)c1n2C` , please?
Output: 13.2 µM (inactive)

Task: Which GI50 is reported for this compound? C1CCN(C2OC3C(COC3N3CCCCC3)OC2OC2CCO[C@@H]2N2CCCCC2)CC1 (some centres undefined)
Output: 89.1 µM (inactive)

Task: Fill in the blank: the reported GI50 of COC(=O)C(C)N(C)C(=O)[C@H](CC(N)=O)N(C)C(=O)[C@@H]1CCCN1C(=O)[C@H](C(C)C)N(C)C(=O)C(C(C)C)N(C)C(=O)[C@@H](NC(=O)OC(C)(C)C)C(C)C (some centres undefined) (Boc-V[ξNMeV][NMeV]P[NMeN][ξNMeA]-OMe) is ____.
Output: > 50 µM (inactive)

Task: // query GI50 value for entry O=C1NC(=O)C(C(CC(=O)c2ccc(Cl)cc2)c2ccc(Cl)cc2)C(=O)N1 (centres undefined)
Output: > 100 µM (inactive)

Task: Please look up its GI50: `CCCCC#COS(=O)(=O)c1ccc(C)cc1`
Output: > 100 µM (inactive)
